meta.source: patent US20200087347

# Target Entity: T1, integrin αvβ6 (human, UniProt P06756)
# T1 chain 1: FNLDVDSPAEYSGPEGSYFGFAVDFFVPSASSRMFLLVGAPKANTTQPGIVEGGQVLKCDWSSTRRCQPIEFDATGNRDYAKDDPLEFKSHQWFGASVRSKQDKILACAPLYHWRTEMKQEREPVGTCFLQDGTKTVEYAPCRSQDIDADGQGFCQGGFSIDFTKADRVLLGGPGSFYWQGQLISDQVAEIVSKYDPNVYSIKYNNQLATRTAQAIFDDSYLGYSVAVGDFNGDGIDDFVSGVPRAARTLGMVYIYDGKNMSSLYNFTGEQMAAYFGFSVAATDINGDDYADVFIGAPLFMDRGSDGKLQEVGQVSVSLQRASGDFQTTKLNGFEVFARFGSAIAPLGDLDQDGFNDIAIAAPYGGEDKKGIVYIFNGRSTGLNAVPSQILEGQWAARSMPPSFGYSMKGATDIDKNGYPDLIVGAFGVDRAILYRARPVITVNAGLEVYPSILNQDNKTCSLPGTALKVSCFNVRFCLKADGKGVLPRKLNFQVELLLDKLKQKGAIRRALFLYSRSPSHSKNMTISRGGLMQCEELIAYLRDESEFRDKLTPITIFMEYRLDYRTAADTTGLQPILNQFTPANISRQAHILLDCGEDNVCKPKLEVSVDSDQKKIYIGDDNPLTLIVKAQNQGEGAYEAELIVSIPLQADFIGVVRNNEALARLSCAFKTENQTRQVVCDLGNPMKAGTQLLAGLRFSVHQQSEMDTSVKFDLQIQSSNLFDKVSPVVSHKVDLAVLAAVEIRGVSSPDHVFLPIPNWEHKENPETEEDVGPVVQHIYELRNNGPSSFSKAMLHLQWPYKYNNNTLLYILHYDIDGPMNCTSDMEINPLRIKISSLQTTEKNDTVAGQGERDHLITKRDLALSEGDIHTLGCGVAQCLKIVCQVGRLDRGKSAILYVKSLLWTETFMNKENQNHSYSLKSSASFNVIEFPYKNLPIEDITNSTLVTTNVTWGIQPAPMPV
# T1 chain 2: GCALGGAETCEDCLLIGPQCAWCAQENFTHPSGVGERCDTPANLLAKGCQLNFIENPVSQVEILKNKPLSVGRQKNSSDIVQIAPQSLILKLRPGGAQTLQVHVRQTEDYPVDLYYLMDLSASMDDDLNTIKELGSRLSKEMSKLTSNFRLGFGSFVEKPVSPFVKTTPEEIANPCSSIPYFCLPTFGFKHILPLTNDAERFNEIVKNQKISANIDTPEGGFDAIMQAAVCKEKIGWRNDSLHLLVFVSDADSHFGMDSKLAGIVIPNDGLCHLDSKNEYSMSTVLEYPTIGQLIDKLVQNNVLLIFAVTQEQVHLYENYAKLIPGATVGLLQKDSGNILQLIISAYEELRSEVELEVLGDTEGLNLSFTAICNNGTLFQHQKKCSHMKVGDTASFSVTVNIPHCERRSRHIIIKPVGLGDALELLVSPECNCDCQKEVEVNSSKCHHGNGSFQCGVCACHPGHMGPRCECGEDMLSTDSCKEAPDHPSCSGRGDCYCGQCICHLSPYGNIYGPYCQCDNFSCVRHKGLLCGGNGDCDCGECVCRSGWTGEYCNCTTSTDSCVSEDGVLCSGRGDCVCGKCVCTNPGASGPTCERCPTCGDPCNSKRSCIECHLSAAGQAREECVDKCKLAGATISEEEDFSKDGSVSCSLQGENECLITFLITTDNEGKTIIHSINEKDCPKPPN
# Test: competition
Where no end group is shown, it is not given here. Side-chain parts run from the residue outwards. [ ]: non-standard residue; d: D form. The star is where a group is joined. BODIPY(FL) = CC1=CC(C)=[N+]2C1=Cc1ccc(CCC(=O)*)n1[B-]2(F)F; NMeK = CN[C@@H](CCCCN)C(=O)O; Ahx = NCCCCCC(=O)O; BDPFL = dye
In plain terms, low IC50, meaning strictly below 200 nM, gives met, and everything else gives not met.

Use these answered entries as a reference point.
Binder	Class Assignment
cyclo(RGDL[dP][NMeK]([Ahx-Ahx-BDPFL])GL) [Compound 9c (9-Ahx-Ahx-BDPFL)]	met
RGDL[dP][NMeK]([(PEG)5-BODIPY(FL)])GL (not fully specified (bridges); also: cyclic, closure not given here) [Compound 9d (9-(PEG)5-BDPFL)]	not met
cyclo(GLRVDL[dP][NMeK]([Ahx-BDPFL])) [Compound 11 (Table 3) c(GLRVDLp(NMe)K)-Ahx-BDPFL]	not met
cyclo(RGDL[dP][NMeK]([Gly-Pro-Pro-Pro-Pro-Pro-Pro-Gly-BDPFL])GL) [Compound 9f (9-G(P)6G-BDPFL)]	not met
cyclo(RGDL[dP][NMeK]([Ahx-BDPFL])GL) [Compound 9b (9-Ahx-BDPFL)]	met

Request: I'd appreciate it if you could check whether cyclo(RGD[dF]K) (also: Ahx-BDPFL conjugate, attachment site not given here) [Compound 13 (Table 3) c(RGDfK)-Ahx-BDPFL] has IC50 smaller than 200 nM.
Result: met

Request: I'd appreciate it if you could check whether RGDL[dP][NMeK]([Gly-Pro-Pro-Pro-Gly-BODIPY(FL)])GL (not fully specified (bridges); also: cyclic, closure not given here) [Compound 9e (9-G(P)3G-BDPFL)] has IC50 smaller than 200 nM.
Result: not met

Request: I'd appreciate it if you could check whether cyclo(RGDL[dP][NMeK](BDPFL)GL) [Compound 9a (9-BDPFL)] has IC50 smaller than 200 nM.
Result: met
